Target: PHGDH (Homo sapiens (Human), UniProt O43175)
Sequence (O43175 whole entry): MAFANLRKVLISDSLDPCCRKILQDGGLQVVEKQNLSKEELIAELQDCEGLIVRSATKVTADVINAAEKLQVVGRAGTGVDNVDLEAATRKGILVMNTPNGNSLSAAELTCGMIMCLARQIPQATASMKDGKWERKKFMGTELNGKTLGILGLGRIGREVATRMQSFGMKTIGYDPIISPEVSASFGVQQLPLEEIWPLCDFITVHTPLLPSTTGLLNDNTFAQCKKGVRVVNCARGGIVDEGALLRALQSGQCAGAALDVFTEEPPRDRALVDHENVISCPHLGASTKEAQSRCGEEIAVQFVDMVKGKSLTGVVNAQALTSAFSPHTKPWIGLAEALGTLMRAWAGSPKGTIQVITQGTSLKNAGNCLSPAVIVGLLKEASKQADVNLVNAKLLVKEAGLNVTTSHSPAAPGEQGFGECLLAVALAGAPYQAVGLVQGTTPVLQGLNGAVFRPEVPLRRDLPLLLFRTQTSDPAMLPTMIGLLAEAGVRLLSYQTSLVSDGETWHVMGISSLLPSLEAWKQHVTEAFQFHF
Experiment: PHGDH inhibition, coupled assay with PSAT1/PSPH and diaphorase/resazurin readout
Details: Table E9; mixture with PSAT1, PSPH; diaphorase/resazurin reporter
So I've got a bunch of compounds here, and I need their IC50 values.

Provide one value: measured IC50 of Cc1cc(C)nc(NC(=S)N2CCN(c3ccc(F)c(Cl)c3)CC2)c1 [Compound 215]
5 to 10 µM

Provide one value: measured IC50 of Cc1cc(C)nc(NC(=S)N2CCN(c3nc4ccccc4s3)CC2)c1 [Compound 106]
10 to 20 µM

Provide one value: measured IC50 of O=[N+]([O-])c1cc(C(F)(F)F)ccc1N1CCN(C(=S)Nc2cc(Cl)ccn2)CC1 [Compound 201]
10 to 20 µM

Provide one value: measured IC50 of Cc1ccnc(NC(=S)N2CCN(c3ccc(C(F)(F)F)cc3)CC2)c1 [Compound 4]
5 to 10 µM

Provide one value: measured IC50 of Cc1ccnc(NC(=S)N2CCN(c3ccc(F)cc3)CC2)c1 [Compound 7]
≥ 20 µM

###

pIC50: −log10 of the molar value.
metricName: pIC50

Fill: pIC50 (UniProt P21695) for this compound Cc1cc(C)nc(NC(=S)N2CCN(Cc3ccc(C(F)(F)F)cc3)CC2)c1
Sequence (P21695 whole entry): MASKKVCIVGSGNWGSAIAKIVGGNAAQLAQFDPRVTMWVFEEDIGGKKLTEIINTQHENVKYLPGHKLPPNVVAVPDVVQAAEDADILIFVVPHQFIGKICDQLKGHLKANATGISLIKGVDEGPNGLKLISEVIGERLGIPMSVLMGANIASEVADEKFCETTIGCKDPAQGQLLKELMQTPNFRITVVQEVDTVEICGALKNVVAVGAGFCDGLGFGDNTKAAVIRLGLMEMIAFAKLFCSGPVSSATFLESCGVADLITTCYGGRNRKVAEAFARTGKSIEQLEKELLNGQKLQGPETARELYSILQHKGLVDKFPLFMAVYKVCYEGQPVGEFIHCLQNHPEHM
≤ 4.00

###

Molecular target: PHGDH (Homo sapiens (Human))
Test: PHGDH inhibition, coupled assay with PSAT1/PSPH and diaphorase/resazurin readout
Conditions: Table E9; mixture with PSAT1, PSPH; diaphorase/resazurin reporter
pIC50: −log10 of the molar value.
So I've got a bunch of compounds here, and I need their pIC50 values.

Provide one value: measured pIC50 of Cc1cc(C)nc(NC(=S)N2CCN(c3cccc4ccccc34)CC2)c1
5.00 to 5.30

Provide one value: measured pIC50 of Cc1ccnc(NC(=S)N2CCN(c3ncc(C(F)(F)F)cc3Cl)CC2)c1
5.00 to 5.30

Provide one value: measured pIC50 of FC(F)(F)c1cc(N2CCN(C(=S)Nc3cc(Cl)ccn3)CC2)cc(C(F)(F)F)c1
≤ 4.70

Provide one value: measured pIC50 of Cc1cc(C)nc(NC(=S)N2CCC(CN3CCCCC3)CC2)c1
≤ 4.70

Provide one value: measured pIC50 of S=C(Nc1cc(Cl)ccn1)N1CCN(c2ccc3ccccc3n2)CC1
≤ 4.70

Provide one value: measured pIC50 of Cc1ccnc(NC(=S)N2CCN(c3cccc([N+](=O)[O-])c3)CC2)c1
≤ 4.70

Provide one value: measured pIC50 of Cc1cc(C)nc(NC(=S)N2CCN(c3cnc4nccn4c3)CC2)c1
≤ 4.70

Provide one value: measured pIC50 of Cc1cc(C)nc(NC(=S)N2CCN(c3ccc([S+](C)(=O)[O-])cc3F)CC2)c1
≤ 4.70

Provide one value: measured pIC50 of Cc1cc(C)nc(NC(=S)N2CCN(c3cccc4[nH]ccc34)CC2)c1
4.70 to 5.00

Provide one value: measured pIC50 of Cc1cc(C)nc(NC(=S)N2CCN(Cc3ccc(OC(F)(F)F)cc3)CC2)c1
> 5.30

Provide one value: measured pIC50 of Cc1cc(C)nc(NC(=S)N2CCN(c3cccc(OC(F)F)c3)CC2)c1
> 5.30

Provide one value: measured pIC50 of Cc1ccc2nc(NC(=S)N3CCN(c4cccc(C(F)(F)F)c4)CC3)[nH]c2c1 [Compound 239]
4.70 to 5.00

Provide one value: measured pIC50 of Cc1cc(C)nc(NC(=S)N2CCN(Cc3cccc(Cl)c3)CC2)c1
4.70 to 5.00

Provide one value: measured pIC50 of Cc1cc(C)nc(NC(=S)N2CCN(c3cccc([S+](C)(=O)[O-])c3)CC2)c1
≤ 4.70

Provide one value: measured pIC50 of Cc1cc(C)nc(NC(=S)N2CCN(c3ccc(N[S+](C)(=O)[O-])nn3)CC2)c1
≤ 4.70

Provide one value: measured pIC50 of COc1cccc(NC(=S)N2CCN(c3cccc(Cl)c3Cl)CC2)n1
4.70 to 5.00

Provide one value: measured pIC50 of Cc1ccnc(NC(=S)NC2CCCN(c3cccc(C(F)(F)F)c3)C2)c1 (stereo not drawn)
5.00 to 5.30

Provide one value: measured pIC50 of Cc1cc(C)nc(NC(=S)N2CCN(c3cccc(C(=O)O)c3)CC2)c1
≤ 4.70

###

So I've got a bunch of compounds here, and I need their pIC50 values.
Target: PHGDH (Homo sapiens (Human), UniProt O43175)
Test: PHGDH inhibition, coupled assay with PSAT1/PSPH and diaphorase/resazurin readout
Conditions: Table E9; mixture with PSAT1, PSPH; diaphorase/resazurin reporter
pIC50: −log10 of the molar value.

Provide one value: measured pIC50 of Cc1cc(C)nc(NC(=S)N2CCN(Cc3cccnc3)CC2)c1
≤ 4.70

Provide one value: measured pIC50 of Cc1cc(C)cc(N2CCN(C(=S)Nc3cc(C)cc(C)n3)CC2)c1
4.70 to 5.00

Provide one value: measured pIC50 of COc1cccc(CN2CCN(C(=S)Nc3cc(C)cc(C)n3)CC2)c1
4.70 to 5.00

Provide one value: measured pIC50 of Cc1cc(C)nc(NC(=S)N2CCN(c3ccc(Cl)cc3[S+](C)(=O)[O-])CC2)c1
4.70 to 5.00

Provide one value: measured pIC50 of Cc1ccnc(NC(=S)N2CCN(c3cccc(C(F)(F)F)n3)CC2)c1
> 5.30

Provide one value: measured pIC50 of Cc1cc(C)nc(NC(=S)N2CCN(c3nc(C)cnc3C)CC2)c1
≤ 4.70

Provide one value: measured pIC50 of Cc1ccc(CN2CCN(C(=S)Nc3cc(C)cc(C)n3)CC2)cc1
> 5.30

Provide one value: measured pIC50 of Cc1cc(C)nc(NC(=S)N2CCN(c3ccc(Cl)c(C(F)(F)F)c3)CC2)c1
4.70 to 5.00

Provide one value: measured pIC50 of COc1cccc(NC(=S)N2CCN(c3cc(C(F)(F)F)cc(C(F)(F)F)c3)CC2)n1
> 5.30

Provide one value: measured pIC50 of Cc1ccnc(NC(=S)N2CCN(c3ccc(C(F)(F)F)cc3[N+](=O)[O-])CC2)c1
5.00 to 5.30

Provide one value: measured pIC50 of Cc1cc(C)nc(NC(=S)N2CCN(c3nsc4ccccc34)CC2)c1
4.70 to 5.00

Provide one value: measured pIC50 of Cc1cc(C)nc(NC(=S)N2CCC(NC(=O)c3ccc(C(F)(F)F)cc3)CC2)c1
> 5.30

Provide one value: measured pIC50 of FC(F)(F)c1cccc(N2CCN(C(=S)Nc3nc[nH]n3)CC2)c1 [Compound 233]
5.00 to 5.30

Provide one value: measured pIC50 of Cc1cc(C)nc(NC(=S)N2CCN(c3cccc(C(F)(F)F)c3)CC2)c1
5.00 to 5.30

Provide one value: measured pIC50 of COc1ccccc1N[S+](=O)([O-])c1cc(NC(=O)c2ccc3ccccc3n2)ccc1N1CCCC1
≤ 4.70

Provide one value: measured pIC50 of Cc1cc(C)nc(NC(=S)N2CCN(Cc3ccc(C(F)(F)F)cc3)C(CO)C2)c1 (centres unmarked)
4.70 to 5.00

Provide one value: measured pIC50 of Cc1cc(C)nc(NC(=S)N2CCN(c3ccc(Cl)cc3C(F)(F)F)CC2)c1
4.70 to 5.00

Provide one value: measured pIC50 of Cc1cc(C)nc(NC(=S)N2CCN(c3cccc4ccncc34)CC2)c1
4.70 to 5.00

Provide one value: measured pIC50 of Cc1cc(C)nc(NC(=S)N2CCC(C(=O)N3CCOCC3)CC2)c1
≤ 4.70

Provide one value: measured pIC50 of Cc1cc(C)nc(NC(=S)N2CCN(Cc3ccc(C(F)(F)F)cc3)[C@H](C)C2)c1
> 5.30

Provide one value: measured pIC50 of Cc1cc(C)nc(NC(=S)N2CCC(Nc3ccc(C(F)(F)F)cc3)CC2)c1
> 5.30

Provide one value: measured pIC50 of S=C(Nc1cc(Cl)ccn1)N1CCN(c2cc(Cl)cc(Cl)c2)CC1
≤ 4.70

Provide one value: measured pIC50 of S=C(Nc1cc(Cl)ccn1)N1CCN(c2cccc(Cl)c2Cl)CC1
4.70 to 5.00

Provide one value: measured pIC50 of Cc1cc(C)nc(NC(=S)N2CCN(c3ccc4nncn4c3)CC2)c1
≤ 4.70

Provide one value: measured pIC50 of CSC(Cc1ccc(Cl)cc1)C(=O)Nc1ccc(Cl)cc1C(=O)O (centres unmarked)
≤ 4.70

Provide one value: measured pIC50 of Cc1cc(C)nc(NC(=S)N2CCN(Cc3ccccn3)CC2)c1
≤ 4.70

Provide one value: measured pIC50 of COc1ccnc(NC(=S)N2CCN(c3cc(C(F)(F)F)cc(C(F)(F)F)c3)CC2)c1
> 5.30

Provide one value: measured pIC50 of Cc1cc(C)nc(NC(=S)N2CCN(c3ccc(C(F)(F)F)cc3[N+](=O)[O-])CC2)c1
5.00 to 5.30

Provide one value: measured pIC50 of Cc1cc(C)nc(NC(=S)N2CCN(c3ncccc3C#N)CC2)c1
≤ 4.70

Provide one value: measured pIC50 of Cc1ccnc(NC(=S)N2CCN(c3ccc4ccccc4n3)CC2)c1
4.70 to 5.00

Provide one value: measured pIC50 of COc1cccc(NC(=S)N2CCN(c3cccc(C(F)(F)F)c3)CC2)n1
5.00 to 5.30

Provide one value: measured pIC50 of Cc1ccnc(NC(=S)N2CCN(c3cccc(C(F)(F)F)c3)CC2)n1
4.70 to 5.00

Provide one value: measured pIC50 of Cc1cc(C)nc(NC(=S)N2CCN(c3ccc(-c4ccccc4)cc3)CC2)c1
≤ 4.70

Provide one value: measured pIC50 of Cc1ccnc(NC(=S)Nc2cccc(C(F)(F)F)c2)c1
4.70 to 5.00

Provide one value: measured pIC50 of Cc1cc(C)nc(NC(=S)N2CCN(c3cc(Br)cc(C(F)(F)F)c3)CC2)c1
5.00 to 5.30
